TARGET_ENTITY: Bile acid receptor (Homo sapiens)
ASSAY_REMARKS: qHTS assay for small molecule antagonists of farnesoid X receptor signaling (AID 588526)
RECORDED_CONDITIONS: HEK293T FXR-UAS-bla, beta-lactamase ratio, antagonist mode; series mostly up to 76.7 µM
Records with an inconclusive call do not appear. Activity calls are given as the source filed them. Calls follow the shape of the full dose curve.
Classes used: active, inactive

{"columns": ["MOLECULE", "ANSWER_LABEL"],
 "data": [
  ["Nc1nc(N)nc(NC2CC2)n1", "inactive"],
  ["COC(=O)C(c1ccccc1)C1CCCCN1 (stereo unspecified)", "inactive"],
  ["Nc1ccccc1C(=O)O", "inactive"],
  ["C[C@]12CCC(=O)C=C1CC[C@@H]1[C@@H]2CC[C@]2(C)C(=O)CC[C@@H]12", "inactive"],
  ["COP(=S)(OC)SCN1C(=O)c2ccccc2C1=O", "inactive"],
  ["CC(=O)N1CCN(c2ccc(OC[C@H]3CO[C@](Cn4ccnc4)(c4ccc(Cl)cc4Cl)O3)cc2)CC1", "active"]
]}

Attribution: PubChem BioAssay (NCATS)
